- study-system: recombinant PRL-2 (Homo sapiens)
- Construct: 6xHis (N, cleaved yes); made in house; host or cells: E. coli One Shot BL21 Star
- Sequence (Q12974 whole entry): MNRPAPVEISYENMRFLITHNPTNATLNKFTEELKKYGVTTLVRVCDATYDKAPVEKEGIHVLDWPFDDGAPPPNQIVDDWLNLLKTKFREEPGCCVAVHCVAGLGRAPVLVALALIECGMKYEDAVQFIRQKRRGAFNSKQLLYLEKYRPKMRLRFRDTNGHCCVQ
- experiment-summary: In vitro phosphatase assay (DiFMUP hydrolysis), PRL-2;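 note: PRL-2 activity read as DiFMUP hydrolysis after 20 min at room temperature with drug, enzyme first pre-reduced at 4 °C for 20 min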
- Format: biochemical
- measurement-context: FDA-approved drug screen; compared to DMSO
Non-standard residues stand in square brackets, D forms with d. Residues, ends and D or L forms follow the SMILES beside them. pGlu = O=C1CC[C@@H](C(=O)O)N1; Thz = O=C(O)[C@@H]1CSCN1
experimental-readout: % Phosphatase Activity (compared to DMSO) PRL-2 (%)
Report as a plain number; the unit % is understood.

Request: // returns reported % Phosphatase Activity (compared to DMSO) PRL-2 for input COc1cc2c(cc1OC)[C@@]13CCN4CC5=CCO[C@H]6CC(=O)N2[C@H]1[C@H]6[C@H]5C[C@H]43 [Brucine]
Result: 86

Request: Another compound: OC(CNCC(O)C1CCc2cc(F)ccc2O1)C1CCc2cc(F)ccc2O1 (stereo not shown) [Nebivolol]
Result: 81

Request: Another compound: Cc1ccnc2c1NC(=O)c1cccnc1N2C1CC1 [Nevirapine]
Result: 101

Request: Another compound: O=C1CC[C@@H](C(=O)N2CSC[C@H]2C(=O)O)N1 [Pidotimod] ([pGlu]-[Thz]-OH)
Result: 103
